Origin of the recorded values: PubChem BioAssay AID1159580

test protocol: chemical genetic growth profiling, strain panel (AID 1159580);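 further: tested at 20 µM; growth read once vehicle control cultures reached saturation at 30 °C; lower values mean less growth of the strain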
measurement conditions: S. cerevisiae deletion strains, growth OD, locus YML070W, strain DAK1
About 2,000 (36%) of roughly 5,500 compounds were called active. Inconclusive results (about 18%) are left out. No stated cut-off is given here; in the data, active means normalized growth mostly below about 0.91 (no sharp cut-off); inconclusive means no clear call, values can overlap the other calls; inactive means mostly above about 0.92. Some of the results follow.
# output must be one of active, inactive

>  <structure>
S=C(NCCc1csc2ccccc12)Nc1ccc(Cl)cc1

>  <class name>
inactive

$$$$
>  <structure>
Cc1csc2ncnc(N3CCN(C(=O)Nc4ccc(SC(F)(F)F)cc4)CC3)c12

>  <class name>
inactive

$$$$

In: What did the test return for O=[N+]([O-])c1cc(C(F)(F)F)ccc1Sc1n[nH]c(-c2cc(Cl)cc(Cl)c2)n1 ?
Out: active

In: // same read-out, input: Cc1csc2ncnc(N3CCN(C(=S)Nc4ccc(C(F)(F)F)cc4)CC3)c12
Out: inactive

In: // same read-out, input: O=C1C(NCc2ccccc2)=C(NCc2ccccc2)C(=O)c2ccccc21
Out: inactive

In: // same read-out, input: Cc1csc2c(N3CCN(C(=S)Nc4ccc(C(F)(F)F)cc4)CC3)ncnc12
Out: inactive
